B1: Twister Ribozyme (parent)
chain: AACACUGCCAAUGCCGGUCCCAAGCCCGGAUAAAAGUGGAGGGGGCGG

- Variants of: B1
- protocol_description: self-cleavage, relative activity (ratio to wild type); higher = more cleavage; co-transcriptional
Entry flag: label 1 if self-cleavage reaches 0.1; label 0 if it does not.

entry_sequence: AACACUGCCAAUGCCGGCCCCAAGCCCGGAUAAAAGUGGAGGUGGCGG
qualitative_label: label 1
//
entry_sequence: CACACUGCCAAUGCCGGUCCCAAGCCCGGAUAAAAGUGGAGCGGGCGG
qualitative_label: label 1
//
entry_sequence: CACACUGCCAAUGCCGGUCCCAAGCCCGGAUAAAAGUGGAGGGUGCGG
qualitative_label: label 1
//
entry_sequence: AACACUGCCAAUGCCUAUCCCAAGCCCGGAUAAAAGUGGAGGGGGCGG
qualitative_label: label 0
//
entry_sequence: AACACUGCCAAUGCCGGUCCCAAGCCCGGACAAAGGUGGAGGGGGCGG
qualitative_label: label 1
//
entry_sequence: AACACUGCCUAUGCCGGUCCCAAGCCCGGAUAAAAGUGGAUGGGGCGG
qualitative_label: label 1
//
entry_sequence: ACCACUGCCAAUGCCGGUCCCAAGCCCGGAUAGAAGUGGAGGGGGCGG
qualitative_label: label 1
//
entry_sequence: AACACUGCCAAUGCCGAUCCCAAGCCCGGAUACAAGUGGAGGGGGCGG
qualitative_label: label 1
//
entry_sequence: AACACUGCCAAAGCCGGUCCCAAGCCCGGAUAAAAGUUGAGGGGGCGG
qualitative_label: label 1
//
entry_sequence: AACACUGCCAAUGCCGUUCCCAAGCCCGGUUAAAAGUGGAGGGGGCGG
qualitative_label: label 1
//
entry_sequence: AACACUGCCAAUCCCGGUCCCAAGCCCGUAUAAAAGUGGAGGGGGCGG
qualitative_label: label 1
//
entry_sequence: AACAGUUCCAAUGCCGGUCCCAAGCCCGGAUAAAAGUGGAGGGGGCGG
qualitative_label: label 0
//
entry_sequence: AACACUGCCAAUGCCGGUCCCAAGCACGGAUAAAAGUGGAGGGCGCGG
qualitative_label: label 1
//
entry_sequence: AACACUGCCAAUGCCGGUCCCAAGCCCGGCUAAAAGUGUAGGGGGCGG
qualitative_label: label 1
//
entry_sequence: AACACUGCCAAUGCCGGUCCCAAGCCGGGAUAAAAGUGGAGGGCGCGG
qualitative_label: label 1
//
entry_sequence: AACACUGCCAAAGCCGGUCCCAAGCCCGGAUAAAAGUGGAGGGGGCCG
qualitative_label: label 1
//
entry_sequence: UACACUGCCAAUGCCGGUCCGAAGCCCGGAUAAAAGUGGAGGGGGCGG
qualitative_label: label 0
//
entry_sequence: AACACUGCCAAUGCCGGUGACAAGCCCGGAUAAAAGUGGAGGGGGCGG
qualitative_label: label 0
//
entry_sequence: AACACGGCCAAUGCCGGGCCCAAGCCCGGAUAAAAGUGGAGGGGGCGG
qualitative_label: label 0
//
entry_sequence: AACACUCCCAAUGCCGGUCCCGAGCCCGGAUAAAAGUGGAGGGGGCGG
qualitative_label: label 0
//
entry_sequence: AACACUGCCAAUGCCGGUCCCAAGCCCGGAUAAAAUUUGAGGGGGCGG
qualitative_label: label 1
